Tested on: LOC_OS01G60330-cb001
Assay info: thermal shift delta Tm vs DMSO control; higher = stronger stabilization (binding);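 note: purified Escherichia coli-expressed rice kinase domain construct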
Experimental conditions: 12.5 µM; protein concentration 2 µM
Lab note: compare thermal shift delta Tm against 0.8 °C. Equal or greater, write True. Smaller, write False.

O=C1NC(=O)C(c2ccccc2[N+](=O)[O-])=C1Nc1ccc(O)c(Cl)c1	False
O=C(O)c1ccc(-c2c[nH]c3ncc(-c4ccccc4)cc23)cc1C1CCCC1	False
O=C(NOCC1CC1)c1ccc(F)c(F)c1Nc1ccc(I)cc1Cl	True
CN(C)C[C@@H]1CCn2cc(c3ccccc32)C2=C(C(=O)NC2=O)c2cn(c3ccccc23)CCO1	False
O=C1NCCc2[nH]c(-c3ccncc3)cc21	True

Request: Given the entry `COCC(=O)NC/C=C/c1ccc2ncnc(Nc3ccc(Oc4ccc(C)nc4)c(C)c3)c2c1` , answer whether its thermal shift delta Tm meets or surpasses 0.8 °C.
Result: False

Request: Given the entry `CC(C)Oc1ccc(-c2nn([C@@H](C)c3oc4ccc(F)cc4c(=O)c3-c3cccc(F)c3)c3ncnc(N)c23)cc1F` , answer whether its thermal shift delta Tm meets or surpasses 0.8 °C.
Result: True

---

Tested on: LOC_OS01G13800-cb001
Assay info: thermal shift delta Tm vs DMSO control; higher = stronger stabilization (binding)
Experimental conditions: 12.5 µM; protein concentration 2 µM
Lab note: compare thermal shift delta Tm against 0.8 °C. Equal or greater, write true (1). Smaller, write false (0).

N#CCNC(=O)c1ccc(-c2ccnc(Nc3ccc(N4CCOCC4)cc3)n2)cc1	false (0)
COc1ccc(-c2nc(N3CCOCC3)c3sc(CN(C)c4ncc(C(=O)NO)cn4)cc3n2)cn1	false (0)
O=C1Cc2c([nH]c3ccc(Br)cc23)-c2ccccc2N1	true (1)

Okay, now this molecule:
Request: Given the entry `CCn1c(=O)c(-c2cc[nH]n2)cc2c(C)nc(N)nc21` , answer whether its thermal shift delta Tm meets or surpasses 0.8 °C.
Result: false (0)

---

Tested on: LOC_OS07G06570-cb004
Assay info: thermal shift delta Tm vs DMSO control; higher = stronger stabilization (binding)
Experimental conditions: 12.5 µM; protein concentration 2 µM
Measurement type: thermal shift delta Tm (°C)
Report only the number, with the unit °C understood.

Request: For the molecule `CCN(CC)CCNC(=O)c1c(C)[nH]c(/C=C2\C(=O)Nc3ccc(-c4csc(-c5ccccc5)n4)cc32)c1C` , what thermal shift delta Tm is on record?
Result: 1.73

Request: For the molecule `CN(c1ccccc1CNc1nc(Nc2ccc3c(c2)CC(=O)N3)ncc1C(F)(F)F)S(C)(=O)=O` , what thermal shift delta Tm is on record?
Result: 1.23

Request: For the molecule COc1ccc(COc2cc3oc(=O)c4cc(C(C)O)ccc4c3cc2OC)cc1 (stereo not drawn) , what thermal shift delta Tm is on record?
Result: 0.97

Request: For the molecule O=C1c2c(O)cc(O)cc2OC(c2ccc(O)c(O)c2)C1O (stereo not drawn) [Taxifolin (Dihydroquercetin)] , what thermal shift delta Tm is on record?
Result: 0.96

Request: For the molecule `COc1cc2nccc(Oc3ccc(NC(=O)Nc4cc(C)on4)c(Cl)c3)c2cc1OC` , what thermal shift delta Tm is on record?
Result: 0.52

Request: For the molecule `C[C@H](Nc1ncnc2nc[nH]c12)c1cc2cccc(Cl)c2c(=O)n1-c1ccccc1` , what thermal shift delta Tm is on record?
Result: 0.07

Request: For the molecule `C[C@H](CN(C)C)Oc1nc(Nc2cc3cccc(Cl)c3cn2)cnc1C#N` , what thermal shift delta Tm is on record?
Result: 0.8

Request: For the molecule `CCS(=O)(=O)N1CCN(c2ccc(Nc3ncc(C(N)=O)c(NC4CC4)n3)cc2)CC1` , what thermal shift delta Tm is on record?
Result: 1.36

---

System: LOC_OS03G50810-cb003
Assay info: thermal shift delta Tm vs DMSO control; higher = stronger stabilization (binding)
Experimental conditions: 12.5 µM; protein concentration 2 µM
Consider the following compounds and their measured thermal shift delta Tm readings.
Report only the number, with the unit °C understood.

The following compounds have reported results that may help.
N#CCNC(=O)c1ccc(-c2ccnc(Nc3ccc(N4CCOCC4)cc3)n2)cc1	2.03
Cn1nccc1Nc1nccc(-c2ccn([C@H](CO)c3ccc(Cl)c(F)c3)c(=O)c2)n1	-0.12
COc1cc2ncnc(Nc3ccc(O)c(Br)c3)c2cc1OC	2.28
Cc1ncc(-c2ccnc(Nc3ccc(S(C)(=O)=O)cc3)n2)n1C(C)C	1.7
COc1ccc(-c2cc3c(C)nc(N)nc3n([C@H]3CC[C@H](OCCO)CC3)c2=O)cn1	0.45
CCS(=O)(=O)N1CCN(c2ccc(Nc3ncc(C(N)=O)c(NC4CC4)n3)cc2)CC1	4.92

Request: For the compound `CCOc1cn(-c2ccc(F)cc2C)nc1C(=O)Nc1ccc(Oc2ccnc3cc(OC)c(OC)cc23)c(F)c1` , what thermal shift delta Tm is on record?
Result: 1.07

Request: For the compound `O=C(/C=C/c1ccc(O)c(O)c1)c1ccc(O)cc1O` , what thermal shift delta Tm is on record?
Result: 2.72

Request: For the compound `COc1cc(OC)c(C=C2C(=O)Nc3ccccc32)c(OC)c1` , what thermal shift delta Tm is on record?
Result: -0.06

---

System: LOC_OS04G38480-cb003
Sequence (whole entry): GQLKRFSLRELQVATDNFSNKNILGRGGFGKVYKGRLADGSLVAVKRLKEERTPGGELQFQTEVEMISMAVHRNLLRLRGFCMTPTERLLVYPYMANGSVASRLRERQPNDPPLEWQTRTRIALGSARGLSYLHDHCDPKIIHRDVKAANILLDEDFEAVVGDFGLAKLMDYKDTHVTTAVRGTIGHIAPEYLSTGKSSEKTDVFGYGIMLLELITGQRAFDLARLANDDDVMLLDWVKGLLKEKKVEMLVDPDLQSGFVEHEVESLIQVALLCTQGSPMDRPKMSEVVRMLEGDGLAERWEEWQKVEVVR
Assay info: thermal shift delta Tm vs DMSO control; higher = stronger stabilization (binding)
Experimental conditions: 12.5 µM; protein concentration 2 µM
Lab note: compare thermal shift delta Tm against 2 °C. Equal or greater, write yes. Smaller, write no.

Request: Given the entry `C[C@@H]1COCCN1c1cc(=O)n2c(n1)N(Cc1cncc(Cl)c1)[C@H](C(F)(F)F)CC2` , answer whether its thermal shift delta Tm meets or surpasses 2 °C.
Result: no

Request: Given the entry `C[C@H](Nc1ncnc2[nH]cnc12)c1cc2ccc(F)cc2nc1-c1ccccn1` , answer whether its thermal shift delta Tm meets or surpasses 2 °C.
Result: no

Request: Given the entry `O=C(c1cccc(Cl)c1F)N1CCN(Cc2cccc(Nc3nccs3)n2)CC1` , answer whether its thermal shift delta Tm meets or surpasses 2 °C.
Result: yes

---

Consider the following compounds and their measured thermal shift delta Tm readings.
Test system: LOC_OS03G50450-cb001
Assay info: thermal shift delta Tm vs DMSO control; higher = stronger stabilization (binding)
Experimental conditions: 12.5 µM; protein concentration 2 µM
Reply with a number, then the unit it belongs to.

The following compounds have reported results that may help.
Cn1cnc(N)c2ncnc1-2 [3-Methyladenine (3-MA)]	0.39 °C
COc1cc2/c(=N/c3ccc(Br)cc3F)nc[nH]c2cc1OCC1CCN(C)CC1 [Vandetanib (ZD6474)]	1.05 °C
O=C(NOCC(O)CO)c1cc(Br)c(F)c(F)c1Nc1ccc(I)cc1F (stereo not given)	0.19 °C
O=C(Nc1nc2cccc(-c3ccc(CN4CCS(=O)(=O)CC4)cc3)n2n1)C1CC1 [Filgotinib (GLPG0634)]	1.73 °C
CN(C)Cc1cccc(N/C(=C2\C(=O)Nc3cc(C(N)=O)ccc32)c2ccccc2)c1	0.35 °C

Request: For the compound `C[C@H](NC(=O)c1c(N)nn2cccnc12)c1cc2cccc(C#Cc3cnn(C)c3)c2c(=O)n1-c1ccccc1` , what thermal shift delta Tm is on record?
Result: 0.63 °C

Request: For the compound `CCNC(=O)Nc1ccc(-c2nc3c(c(N4CCOC[C@@H]4C)n2)CCN(C2COC2)C3)cc1` , what thermal shift delta Tm is on record?
Result: 0.68 °C

Request: For the compound `COc1ccc2c(Oc3ccc(NC(=O)c4c(C)n(CC(C)(C)O)n(-c5ccccc5)c4=O)nc3)ccnc2c1` , what thermal shift delta Tm is on record?
Result: 0.38 °C

Request: For the compound CS(=O)(=O)CCNCc1ccc(-c2ccc3ncnc(Nc4ccc(OCc5cccc(F)c5)c(Cl)c4)c3c2)o1 [Lapatinib] , what thermal shift delta Tm is on record?
Result: 1.2 °C

Request: For the compound `Oc1c(F)cc(-c2cnccc2-c2ccc(N3CCOCC3)cc2)cc1F` , what thermal shift delta Tm is on record?
Result: 0.25 °C

Request: For the compound O=C(c1ccc(Nc2nccc(-c3cc4ccccc4s3)n2)cc1)N1CCC(N2CCCC2)CC1 [IKK-16 (IKK Inhibitor VII)] , what thermal shift delta Tm is on record?
Result: 1.23 °C

Request: For the compound `CN(C)CCCn1cc(C2=C(c3c[nH]c4ccccc34)C(=O)NC2=O)c2ccccc21` , what thermal shift delta Tm is on record?
Result: 1.02 °C

Request: For the compound `COc1cc2ncnc(Sc3nnc(C)s3)c2cc1OC` , what thermal shift delta Tm is on record?
Result: 0.5 °C

Request: For the compound `CN(C[C@@H]1COCCO1)S(=O)(=O)Nc1ccc2ccc3ncc(-c4cnn(C)c4)cc3c(=O)c2c1` , what thermal shift delta Tm is on record?
Result: 0.44 °C

Request: For the compound `O=S(=O)(NCCNC/C=C/c1ccc(Br)cc1)c1cccc2cnccc12` , what thermal shift delta Tm is on record?
Result: 0.46 °C

Request: For the compound COc1cc(Nc2ncc3c(n2)-c2ccc(Cl)cc2C(c2c(F)cccc2OC)=NC3)ccc1C(=O)O [Alisertib (MLN8237)] , what thermal shift delta Tm is on record?
Result: -0.33 °C

Request: For the compound `Cc1cc([C@@H](C)Nc2ccccc2C(=O)O)c2nc(N3CCOCC3)cc(=O)n2c1` , what thermal shift delta Tm is on record?
Result: 0.63 °C

Request: For the compound COc1cc2ncnc(Nc3cccc(Cl)c3)c2cc1OC [AG-1478 (Tyrphostin AG-1478)] , what thermal shift delta Tm is on record?
Result: 0.38 °C

Request: For the compound COc1cc2c(N3CCN(C(=O)Nc4ccc(OC(C)C)cc4)CC3)ncnc2cc1OCCCN1CCCCC1 [Tandutinib (MLN518)] , what thermal shift delta Tm is on record?
Result: 0.42 °C
